Entries and their INHIBITION
# Test system: Plasmodium falciparum
# experiment-notes: Screen against P. falciparum Asexual Blood Stage (ABS), at 5uM
# Format: functional, Dd2
# particulars: tested at 5 uM
In all, about 65,000 compounds went through this assay and about 2,100 (3.2%) showed an effect of 50% or more. The median lay at about -52%. Many of the other results were omitted from the sample, so strong results are more common in it than they were.
metric: INHIBITION (%)

- CCS(=O)(=O)N[C@@H]1CN(Cc2cc(C)on2)C[C@@H]2CCCO[C@@H]21: -96
- CC[C@H]1CN2CC[C@H]1C[C@@H]2CNCc1ccc(OC(F)(F)F)cc1: 85.7
- Cc1cc(CN2CC[C@H]3C[C@@H](C)O[C@@H]3C2)no1: -71.2
- COc1ccc(-c2n[nH]cc2C2SCC(=O)Nc3[nH]ncc32)cc1 (stereo not drawn): -21.3
- O=C(Cc1ccc(F)cc1)N1CCN(CC(O)c2ccccc2)CC1 (stereo not drawn): -18
- Cc1nc[nH]c1CN1CCCC12CCN(c1ccccn1)CC2: -15.3
- O=C1N(Cc2cccnc2)C[C@H]2CN(C3CCOCC3)CCN12: -55.6
- CC[C@H]1CN2CC[C@H]1C[C@@H]2CNCc1ccc(N(C)C)cc1: 62.8

---

# Test system: Plasmodium falciparum
# experiment-notes: Screen against P. falciparum Asexual Blood Stage (ABS), at 5uM
# Type: functional, Dd2
# particulars: tested at 5 uM
Among all 65,000 compounds or so, about 2,100 (3.2%) showed an effect of 50% or more. The median lay at about -52%. What follows is part of a selection rich in strong results, with near analogues and random picks from the rest.
Answer f if INHIBITION is under 70%, and t if it is 70% or more.

• COc1cccc(CN(C)Cc2[nH]c3ccccc3c2C)c1O = t
• CCN1CCC2(COCc3c(C)nc(N4CCOCC4)nc32)C1 (configuration not stated) = f
• CC(N)Cc1ccccc1Sc1ccc(O)cc1 (configuration not stated) = t
• COc1cc(N2CCC[C@]3(C(=O)O)CN(C(C)C)C[C@@H]3C2)ncn1 = f
• Cc1[nH]c2ccccc2c1-c1ccnc(NCCN2CCOCC2)n1 = t
• Cc1cccc(CN2CC[C@@H]3[C@@H]2CCN3C(=O)c2ccoc2C)n1 = f
• O=C(c1ccc[nH]1)N1CCCC2(CCCN2Cc2cccnc2)C1 (configuration not stated) = f

---

Catalogue of INHIBITION readings, one per entry.
# Tested on: Plasmodium falciparum
# experiment-notes: Screen against P. falciparum Asexual Blood Stage (ABS), at 5uM
# Assay type: functional, Dd2
# particulars: tested at 5 uM
Hit rate of the full screen: of about 65,000 compounds, about 2,100 (3.2%) showed an effect of 50% or more. The median lay at about -52%. Many of the other results were omitted from the sample, so strong results are more common in it than they were.
metric: INHIBITION

- CCS(=O)(=O)NC[C@]12COC[C@H]1CN(Cc1ccccn1)C2: -30.3%
- Cc1noc(C)c1CN1CCO[C@H]2CN(Cc3cccnc3)C[C@H]21: 0.607%
- c1cnc(N2CC3(CCN(Cc4cccnc4)C3)C2)nc1: -85.5%
- COc1ccc(CN2CCNC(=O)CC2)cc1SC(F)(F)F: 74.5%
- c1ccc(N2CCCC3(CCN(Cc4ccsc4)C3)C2)nc1 (configuration not stated): 82.6%
- CCc1cc(N2CCN3CCCCC3C2)n2nccc2n1 (configuration not stated): 6.52%
- CC(C)N1CCCC(Cc2nccnc2Cl)CC1 (configuration not stated): -7.14%
- CS(=O)(=O)N1C[C@@H]2CC[C@H]1CN(Cc1ccncc1)C2: -82.5%
- CC(C)=CCN1C(=O)[C@@H]2CC[C@H]1CN(Cc1cccnc1N)C2: -11.1%
- CC(Cc1cccc(Cl)c1)NC(=O)NCc1ncnn1C (configuration not stated): -104%
- FC1(F)CCN(Cc2cccnc2)CC12CCN(c1ccccc1)C2 (configuration not stated): 85.3%
- Cc1ccc(-c2noc(CC[C@@H]3CCCN4CCCC[C@H]34)n2)nn1: -74.3%

---

# Tested on: Plasmodium falciparum
# experiment-notes: Screen against P. falciparum Asexual Blood Stage (ABS), at 5uM
# Assay type: functional, Dd2
# particulars: tested at 5 uM
Among all 65,000 compounds or so, about 2,100 (3.2%) showed an effect of 50% or more. The median lay at about -52%. Only a selection was taken, and strong results are over-represented in it overall.
metric: INHIBITION (%)

• CC(C)N1CCC(NCc2cccnc2N(C)Cc2ccccc2)CC1 = 84.1
• O=C(Cc1c[nH]c2ccccc12)N1CCC(Nc2ccccc2)CC1 = -7.04
• Cc1cccc(CN2C[C@@H]3COC[C@]3(COCC(=O)N(C)C)C2)n1 = -104
• Cc1cnn(CC2CCN(CC(O)c3ccccc3Cl)CC2)c1 (centres undefined) = 78
• Cc1occc1C(=O)N1CCN2C[C@H](Oc3cccnc3)C[C@H]2C1 = -23.4
• Cc1cccc(CN2C[C@@H]3COC[C@]3(COc3cccnc3)C2)n1 = -77.5
• CN(Cc1ccccc1)c1ncccc1CNC1CN2CCC1CC2 (centres undefined) = 62.6
• CCNC(=O)C(C)NC(=O)c1cnc(-c2ccc(C)cc2C)s1 (centres undefined) = 71.5
• CN(Cc1cccc(F)c1)C(=O)CS(=O)(=O)Cc1c(Cl)cccc1Cl = 82.7
• Cc1nn(-c2ccccn2)c2c1C(c1cnn(C)c1)SCC(=O)N2 (centres undefined) = -90.8
• COc1ccc(NC(=O)Nc2cnc(N3CCN(C)CC3)nc2)cc1Cl = 87.9
• COC(=O)NCC1CCC2(CCNCC2)O1 (centres undefined) = -44.6
• Cc1ccc(OCc2occc2C(=O)N2CCCCC(N)C2)cc1 (centres undefined) = 77.5
• CNc1nccnc1C1CCN(C(C)C)CC1 = 10.5
• Cc1cnn(CC(C)NCC(=O)NC2CCOCC2)c1 (centres undefined) = 14.5
• CN1CC=C(c2noc(CCC(=O)N3CCCC3)n2)CC1 = -71.4
• CNc1cc(C)nc(NCc2cc(C)cc3c(C)c(C)[nH]c23)n1 = 92
• c1cc(COC[C@@]23CCC[C@@H]2CN(C2CCOCC2)C3)ccn1 = -24.5
• CNC(=O)[C@@H]1C[C@H]2CN(Cc3c(C)noc3C)C[C@H]2N1C(C)C = -39.8
• CN1CCN([C@@H]2CN(C(=O)c3ccnnc3)[C@@H]3CCCO[C@H]23)CC1 = -103
• NC(=O)CN1CCCN(C(=O)Cc2cccc(C(F)(F)F)c2)CC1 = -122
• CC(=O)N1CCC2(CN(CC3CCCC3)C2)C1 = -99.3
• COc1ncccc1CN1C[C@H]2CCN(C(C)C)C[C@H]2C1 = 9.06
• CN(C)Cc1cncc2c1CCN(CC(=O)N(C)C)C2 = -114
